biological target: PI3-kinase p110-alpha/p85-alpha (Homo sapiens, UniProt P42336); assay: Inhibition of recombinant human full length N-terminal His-tagged p110alpha/p85alpha expressed in baculovirus expression system measured after 60 mins in presence of ATP by ATP-competitive binding assay
Sequence (P27986 whole entry): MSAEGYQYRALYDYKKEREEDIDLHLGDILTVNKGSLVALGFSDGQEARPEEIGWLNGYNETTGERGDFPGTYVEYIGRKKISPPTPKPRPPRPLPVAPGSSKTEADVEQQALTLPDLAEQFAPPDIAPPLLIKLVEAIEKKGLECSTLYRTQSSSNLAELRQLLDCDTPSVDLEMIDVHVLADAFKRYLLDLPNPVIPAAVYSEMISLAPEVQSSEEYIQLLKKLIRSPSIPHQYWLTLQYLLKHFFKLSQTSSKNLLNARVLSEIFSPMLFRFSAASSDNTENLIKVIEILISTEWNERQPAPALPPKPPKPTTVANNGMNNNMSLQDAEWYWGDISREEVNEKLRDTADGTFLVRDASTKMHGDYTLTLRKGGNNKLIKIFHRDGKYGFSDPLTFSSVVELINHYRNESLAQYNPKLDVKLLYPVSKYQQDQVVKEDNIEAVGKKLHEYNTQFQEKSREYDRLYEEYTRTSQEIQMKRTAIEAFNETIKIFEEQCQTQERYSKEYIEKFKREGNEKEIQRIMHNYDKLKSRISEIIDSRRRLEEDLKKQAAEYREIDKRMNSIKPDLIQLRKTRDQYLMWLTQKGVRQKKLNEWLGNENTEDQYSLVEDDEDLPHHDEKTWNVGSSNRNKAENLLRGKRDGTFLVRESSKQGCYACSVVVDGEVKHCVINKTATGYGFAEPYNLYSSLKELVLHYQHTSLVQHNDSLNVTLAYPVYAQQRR
Sequence (P42336 whole entry): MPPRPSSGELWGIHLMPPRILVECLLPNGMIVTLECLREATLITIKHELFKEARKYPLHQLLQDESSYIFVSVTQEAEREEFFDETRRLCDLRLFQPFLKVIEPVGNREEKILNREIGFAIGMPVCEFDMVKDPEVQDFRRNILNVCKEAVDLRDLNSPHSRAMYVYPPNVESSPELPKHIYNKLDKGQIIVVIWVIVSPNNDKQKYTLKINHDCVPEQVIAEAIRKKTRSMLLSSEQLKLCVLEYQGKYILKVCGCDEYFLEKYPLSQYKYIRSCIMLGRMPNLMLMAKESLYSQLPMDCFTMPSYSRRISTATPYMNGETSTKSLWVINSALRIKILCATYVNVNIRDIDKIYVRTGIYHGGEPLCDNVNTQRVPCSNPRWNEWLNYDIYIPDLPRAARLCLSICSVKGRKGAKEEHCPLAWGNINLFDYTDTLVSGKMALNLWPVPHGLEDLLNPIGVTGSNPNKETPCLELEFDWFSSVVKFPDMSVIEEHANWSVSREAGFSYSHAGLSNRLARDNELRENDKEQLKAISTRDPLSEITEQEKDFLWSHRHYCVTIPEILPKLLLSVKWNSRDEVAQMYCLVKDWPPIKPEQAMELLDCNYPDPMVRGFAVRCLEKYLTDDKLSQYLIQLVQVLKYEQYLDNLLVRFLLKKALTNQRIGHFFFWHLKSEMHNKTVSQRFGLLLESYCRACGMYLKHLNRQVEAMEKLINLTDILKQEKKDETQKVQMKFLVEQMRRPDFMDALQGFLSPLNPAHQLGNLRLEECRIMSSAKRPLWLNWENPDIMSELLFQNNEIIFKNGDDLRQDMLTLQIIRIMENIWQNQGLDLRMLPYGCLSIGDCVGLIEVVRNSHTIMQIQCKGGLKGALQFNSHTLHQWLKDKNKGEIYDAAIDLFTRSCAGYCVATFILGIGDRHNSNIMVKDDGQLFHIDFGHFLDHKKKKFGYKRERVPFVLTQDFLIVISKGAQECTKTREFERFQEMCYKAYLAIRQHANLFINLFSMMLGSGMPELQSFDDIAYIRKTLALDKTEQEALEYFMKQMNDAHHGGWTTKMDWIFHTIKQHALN
QUANTITY KIND: IC50 (nM)
Give just the number in nM; leave the unit off.

Here's what some known entries look like.
{"columns": ["ENTRY SMILES", "UNIT LABEL", "MEASURED VALUE"],
 "data": [
  ["O=c1c2c(Cl)cccc2nc([C@@H](Nc2ncnc3nc[nH]c23)C2CC2)n1-c1ccccc1", "nM", 205],
  ["CCC[C@H](Nc1ncnc2nc[nH]c12)c1nc2cccc(Cl)c2c(=O)n1-c1ccccc1", "nM", 301],
  ["O=c1c2c(F)cccc2nc([C@@H](Nc2ncnc3nc[nH]c23)C2CC2)n1-c1ccccc1", "nM", 222],
  ["C[C@H](Nc1ncnc2nc[nH]c12)c1nc2cccc(F)c2c(=O)n1-c1ccccc1", "nM", 152]
]}

Challenge: Would you mind telling me what IC50 value was observed for `CC[C@H](Nc1ncnc2nc[nH]c12)c1nc2cccc(N)c2c(=O)n1-c1ccccc1` ?
Response given: 475

Challenge: Which IC50 value is on record for `CCC[C@H](Nc1ncnc2nc[nH]c12)c1nc2cccc(F)c2c(=O)n1-c1ccccc1` ?
Response given: 385

Challenge: # input compound: `CCC[C@H](Nc1ncnc2nc[nH]c12)c1nc2cccc(C(F)(F)F)c2c(=O)n1-c1ccccc1` ; wanted: its IC50
Response given: 326

Challenge: # get_value(readout='IC50', item= `CC(C)[C@H](Nc1ncnc2nc[nH]c12)c1nc2cccc(Cl)c2c(=O)n1-c1ccccc1` )
Response given: 356

Challenge: Quick one: IC50 of `Nc1cccc2nc([C@@H](Nc3ncnc4nc[nH]c34)C3CC3)n(-c3ccccc3)c(=O)c12` ?
Response given: 369

---

target: Phosphatidylinositol 4,5-bisphosphate 3-kinase catalytic subunit beta isoform (Homo sapiens); assay: Inhibition of recombinant human full length His-tagged p110beta expressed in baculovirus expression system measured after 60 mins in presence of ATP by ATP-competitive binding assay
Sequence (P42338 whole entry, canonical isoform): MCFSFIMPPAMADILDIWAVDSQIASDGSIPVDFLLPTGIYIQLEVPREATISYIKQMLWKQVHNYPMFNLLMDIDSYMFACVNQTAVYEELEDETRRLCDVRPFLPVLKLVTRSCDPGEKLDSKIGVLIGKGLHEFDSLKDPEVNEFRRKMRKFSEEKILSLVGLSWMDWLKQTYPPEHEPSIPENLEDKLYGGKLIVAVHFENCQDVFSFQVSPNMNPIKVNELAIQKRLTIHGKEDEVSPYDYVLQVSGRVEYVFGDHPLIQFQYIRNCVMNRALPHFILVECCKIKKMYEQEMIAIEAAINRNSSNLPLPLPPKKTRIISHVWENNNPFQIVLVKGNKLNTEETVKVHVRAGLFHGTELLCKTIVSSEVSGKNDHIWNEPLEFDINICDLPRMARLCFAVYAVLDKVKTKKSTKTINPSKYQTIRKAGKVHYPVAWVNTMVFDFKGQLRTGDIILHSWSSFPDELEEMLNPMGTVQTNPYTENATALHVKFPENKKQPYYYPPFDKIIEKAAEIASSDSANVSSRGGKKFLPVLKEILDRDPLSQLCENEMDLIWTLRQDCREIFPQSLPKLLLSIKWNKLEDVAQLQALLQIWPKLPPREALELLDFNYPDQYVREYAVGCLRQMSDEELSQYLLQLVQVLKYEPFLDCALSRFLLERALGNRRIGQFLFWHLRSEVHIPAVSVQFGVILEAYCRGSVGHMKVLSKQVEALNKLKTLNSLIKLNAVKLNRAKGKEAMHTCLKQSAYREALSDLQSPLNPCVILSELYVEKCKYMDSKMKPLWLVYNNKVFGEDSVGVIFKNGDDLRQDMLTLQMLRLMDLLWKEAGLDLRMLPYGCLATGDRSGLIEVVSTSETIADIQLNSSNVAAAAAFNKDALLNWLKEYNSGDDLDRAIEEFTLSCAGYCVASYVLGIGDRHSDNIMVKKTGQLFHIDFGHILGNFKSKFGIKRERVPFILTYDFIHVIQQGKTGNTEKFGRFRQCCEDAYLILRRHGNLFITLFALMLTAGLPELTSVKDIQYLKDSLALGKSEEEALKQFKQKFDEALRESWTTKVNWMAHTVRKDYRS
// assign satisfied if IC50 falls strictly below 200 nM, else not satisfied (ties count as not satisfied)

Some entries whose results are on file:
{"columns": ["ENTRY SMILES", "LABEL VALUE"],
 "data": [
  ["CC[C@H](Nc1ncnc2nc[nH]c12)c1nc2cccc(N)c2c(=O)n1-c1ccccc1", "not satisfied"],
  ["CC(C)[C@H](Nc1ncnc2nc[nH]c12)c1nc2cccc(Cl)c2c(=O)n1-c1ccccc1", "not satisfied"],
  ["CCC[C@H](Nc1ncnc2nc[nH]c12)c1nc2cccc(Cl)c2c(=O)n1-c1ccccc1", "satisfied"],
  ["CCC[C@H](Nc1ncnc2nc[nH]c12)c1nc2cccc(C(F)(F)F)c2c(=O)n1-c1ccccc1", "not satisfied"],
  ["O=c1c2c(Cl)cccc2nc([C@@H](Nc2ncnc3nc[nH]c23)C2CC2)n1-c1ccccc1", "satisfied"],
  ["Nc1cccc2nc([C@@H](Nc3ncnc4nc[nH]c34)C3CC3)n(-c3ccccc3)c(=O)c12", "not satisfied"],
  ["CCC[C@H](Nc1ncnc2nc[nH]c12)c1nc2cccc(F)c2c(=O)n1-c1ccccc1", "not satisfied"]
]}

Challenge: Input `C[C@H](Nc1ncnc2nc[nH]c12)c1nc2cccc(N)c2c(=O)n1-c1ccccc1` ; condition: IC50 strictly below 200 nM. Does it hold?
Response given: not satisfied

---

Quick reference for Cmax among some compounds
assay: Cmax in Sprague-Dawley rat at 3 mg/kg, po measured for 24 hrs by LC-MS/MS analysis; type: ADME, organism-based; parameters: route oral, time 24 hrs, dose 3 mg/kg; details: in vivo
Write down the numeric answer in ng/mL and omit the unit.

Please review the following examples before continuing.
{"columns": ["COMPOUND", "MEASURED VALUE"],
 "data": [
  ["O=c1c2c(F)cccc2nc([C@@H](Nc2ncnc3nc[nH]c23)C2CC2)n1-c1ccccc1", 41.9],
  ["Cc1cccc2nc([C@@H](Nc3ncnc4nc[nH]c34)C3CC3)n(-c3ccccc3)c(=O)c12", 11.1]
]}

Consider the additional compound presented here.
Challenge: Requested read-out: Cmax. Entry: CC[C@H](Nc1ncnc2[nH]cnc12)c1nc2cccc(F)c2c(=O)n1-c1ccccc1 [IDELALISIB]
Response given: 53

---

Below, each of the compounds is paired with its reported Ratio IC50 value.
species on record: Homo sapiens; assay: Selectivity ratio of IC50 for recombinant human full length His-tagged p110gamma expressed in baculovirus expression system to IC50 for recombinant human full length His-tagged p110delta/p85alpha expressed in baculovirus expression system

// known answers, use as guide
{"columns": ["ENTRY SMILES", "Ratio IC50"],
 "data": [
  ["CCC[C@H](Nc1ncnc2nc[nH]c12)c1nc2cccc(F)c2c(=O)n1-c1ccccc1", 66.8],
  ["O=c1c2c(F)cccc2nc([C@@H](Nc2ncnc3nc[nH]c23)C2CCC2)n1-c1ccccc1", 75.6]
]}

Attention now turns to another entry.
Challenge: Data request, read-out Ratio IC50, for `CC(C)[C@H](Nc1ncnc2nc[nH]c12)c1nc2cccc(F)c2c(=O)n1-c1ccccc1`
Response given: 172
